Values compiled from patent US8546381B2.

Target: human recombinant serotonin (5-Hydroxytryptamine) 5-HT6 receptor (Homo sapiens, UniProt P50406)
Construct: expressed in transfected cells; host or cells: human HeLa cells
Sequence (P50406 whole entry): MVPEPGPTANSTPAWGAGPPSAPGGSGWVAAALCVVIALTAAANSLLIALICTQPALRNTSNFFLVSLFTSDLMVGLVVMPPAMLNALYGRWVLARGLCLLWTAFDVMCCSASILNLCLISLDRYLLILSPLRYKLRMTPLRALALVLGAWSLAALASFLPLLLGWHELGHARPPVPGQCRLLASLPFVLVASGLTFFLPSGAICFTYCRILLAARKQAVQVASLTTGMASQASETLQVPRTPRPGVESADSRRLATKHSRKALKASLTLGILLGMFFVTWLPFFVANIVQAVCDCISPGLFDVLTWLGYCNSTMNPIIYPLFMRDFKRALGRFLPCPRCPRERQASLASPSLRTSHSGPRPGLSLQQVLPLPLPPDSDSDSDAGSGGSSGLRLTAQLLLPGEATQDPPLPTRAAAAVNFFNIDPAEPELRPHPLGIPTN
Assay: Serotonin 5-HT6 radioligand binding ([3H]LSD)
Settings: read-out: Serotonin 5-HT6, inhibition of ligand binding (1 μM)
MEASURED_METRIC: inhibition at 1 µM (%)
Answers are plain numbers, in %.

Here is how some compounds turned out for inhibition at 1 µM.
1. Cc1ccc2c(c1)c1c(n2CCc2ccccc2)CC2CCC1N2C (stereo not drawn) : 82
2. CN1C2CCC1c1c(n(CCc3ccc(F)cc3)c3ccc(F)cc13)C2 (stereo not drawn) : 70
3. Cc1ccc2c(c1)c1c(n2CCC#N)CC2CCC1N2C (stereo not drawn) : 7
4. C/C(=C\n1c2c(c3cc(C)ccc31)C1CCC(C2)N1C)c1cccnc1 (stereo not drawn) : 19
5. Cc1ccc2c(c1)c1c(n2CCc2cncc(Cl)c2)CC2CCC1N2C (stereo not drawn) : 25
6. CN1C2CCC1c1c(n(CC(=O)N3CCOCC3)c3ccc(Cl)cc13)C2 (stereo not drawn) : 0
7. CN1C2CCC1c1c(n(CCC(=O)N3CCNCC3)c3ccc(Cl)cc13)C2 (stereo not drawn) : 2
8. CN1C2CCC1c1c(n(CCC#N)c3ccc(Cl)cc13)C2 (stereo not drawn) : -3

Field: next compound
Return inhibition at 1 µM for the following compound: C/C(=C\n1c2c(c3cc(Cl)ccc31)C1CCC(C2)N1C)c1cccnc1 (stereo not drawn)
62
